EXPERIMENT: qHTS assay for small molecule agonists of the antioxidant response element (ARE) signaling pathway - cell viability counter screen (AID 743203); also: nearly all actives have a fitted effect of over 55% in size; also: potency is read from the fitted curve at half-maximal effect
APPLIED CONDITIONS: ARE-bla HepG2 viability, CellTiter-Glo luminescence, 16 h; series mostly up to 73.3 µM
Results filed as inconclusive are left out. Activity calls are given as the source filed them. Calls follow the shape of the full dose curve.
MEASURED PARAMETER: Potency

INSERT INTO measurements (compound, measured_parameter, test_result) VALUES
  ('CN1CCN(CCCN2c3ccccc3Sc3ccc(C(F)(F)F)cc32)CC1', 'Potency', '15 µM (active)'),
  ('CCC(C)(C)c1ccc(CC(C)CN2C[C@@H](C)O[C@@H](C)C2)cc1 (stereo partly drawn)', 'Potency', 'inactive'),
  ('Cc1ccc(Cl)c(N)c1Cl', 'Potency', 'inactive');
